Below, each entry is listed with its recorded protein stability index.
B1: MGC16075 (parent)
chain: AGSRQALSFEVPPCNYDPEKWIQ

Variants of: B1
Assay: protein stability index of a GFP-peptide fusion (GPS, HEK-293T) (PSI 1-6); higher = more stable;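 note: lentivirally expressed fusions sorted by FACS into six bins by GFP to DsRed ratio, PSI derived from sequencing read proportions per bin multiplied by bin number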
Details: c terminus: native
Form rule: numeric answer, no unit written next to it.

INSERT INTO assay_data (residues, reportedvalue) VALUES
  ('AGSRQALSFEVPPCNYDLEKWIQ [P18L]', 2.72),
  ('AESRQALSFEVPPCNYDPEKWIQ [G2E]', 1.48),
  ('AGSRQALSFEVPPCNYDPEKWVQ [I22V]', 2.75);

Lookup: Record request: protein stability index value, item AGSRMALSFEVPPCNYDPEKWIQ [Q5M]
Found: 1.72

Lookup: Quick one: protein stability index of AGSRQALSFEVPPCNYDNEKWIQ [P18N] ?
Found: 2.15

Lookup: Record request: protein stability index value, item AGSRQHLSFEVPPCNYDPEKWIQ [A6H]
Found: 1.71

Lookup: Item AGYRQALSFEVPPCNYDPEKWIQ [S3Y] has what recorded protein stability index?
Found: 1.28

Lookup: For the variant shown here, AGSRQALSFEVPPCNYHPEKWIQ [D17H] , give the reported protein stability index.
Found: 2.12

Lookup: Please look up its protein stability index: AGSRQALSFEVPGCNYDPEKWIQ [P13G]
Found: 2.1

Lookup: Look at this variant and give its reported protein stability index. AGSRQALSFEVPPCHYDPEKWIQ [N15H]
Found: 1.28

Lookup: Can you look up the measured protein stability index of AGSRQALSFEVPPCNYDPCKWIQ [E19C] for me?
Found: 1.76
